# Measured target: Human PDE10A2 (Homo sapiens (Human), UniProt Q9Y233)
# Sequence (Q9Y233 267-1055): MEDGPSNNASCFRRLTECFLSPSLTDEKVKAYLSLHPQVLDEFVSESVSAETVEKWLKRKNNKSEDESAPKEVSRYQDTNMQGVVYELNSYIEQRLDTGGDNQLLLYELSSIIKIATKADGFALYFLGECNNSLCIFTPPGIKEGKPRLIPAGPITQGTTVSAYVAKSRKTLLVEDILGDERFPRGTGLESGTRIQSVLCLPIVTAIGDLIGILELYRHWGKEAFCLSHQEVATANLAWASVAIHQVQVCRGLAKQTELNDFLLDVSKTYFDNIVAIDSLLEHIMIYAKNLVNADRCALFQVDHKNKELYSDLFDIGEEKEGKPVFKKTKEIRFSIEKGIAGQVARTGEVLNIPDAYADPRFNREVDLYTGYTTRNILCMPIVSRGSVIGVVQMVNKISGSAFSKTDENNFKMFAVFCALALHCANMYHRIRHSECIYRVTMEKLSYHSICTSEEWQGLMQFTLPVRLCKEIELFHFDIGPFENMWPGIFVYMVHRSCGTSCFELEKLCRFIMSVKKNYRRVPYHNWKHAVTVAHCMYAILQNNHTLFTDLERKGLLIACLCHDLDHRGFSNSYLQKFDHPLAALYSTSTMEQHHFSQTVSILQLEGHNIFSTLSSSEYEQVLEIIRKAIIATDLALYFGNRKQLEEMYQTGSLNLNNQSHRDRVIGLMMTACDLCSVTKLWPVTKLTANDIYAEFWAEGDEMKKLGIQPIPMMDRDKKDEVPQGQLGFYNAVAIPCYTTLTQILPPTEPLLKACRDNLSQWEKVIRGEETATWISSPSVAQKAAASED
# Procedure summary: biochemical
# Assay type: biochemical
# Protocol conditions: human PDE10A2 0.25 nM, cGMP 3 μM
Recorded PDE10A2 Phosphate Sensor Enzyme Assay (pIC50) by entry

# example entries with known answers
[
  {
    "Query smiles": "C[C@H]1COCCN1c1nc(C#Cc2nc(-c3ccccc3)c[nH]2)nc2c1ncn2C",
    "Measured target": "Human PDE10A2 (Homo sapiens (Human), UniProt Q9Y233)",
    "Reported value": 8.97
  },
  {
    "Query smiles": "Cn1cc(-c2ccccc2)nc1C#Cc1nc(N2C[C@H]3COC[C@H]3C2)c2cnn(CC3CC3)c2n1",
    "Measured target": "Human PDE10A2 (Homo sapiens (Human), UniProt Q9Y233)",
    "Reported value": 10.10
  },
  {
    "Query smiles": "Cn1cnc2c(N3CC4(COC4)C3)nc(C#Cc3nc(-c4ccccc4)c[nH]3)nc21",
    "Measured target": "Human PDE10A2 (Homo sapiens (Human), UniProt Q9Y233)",
    "Reported value": 9.22
  },
  {
    "Query smiles": "Cn1cc(-c2ccccc2)nc1C#Cc1nc(N2C[C@H]3COC[C@H]3C2)c2cnn(C)c2n1",
    "Measured target": "Human PDE10A2 (Homo sapiens (Human), UniProt Q9Y233)",
    "Reported value": 10.40
  },
  {
    "Query smiles": "Cn1cc(-c2ccccc2)nc1C#Cc1nc2c(c(N3CCOCC3)n1)CCN(CC1CC1)C2",
    "Measured target": "Human PDE10A2 (Homo sapiens (Human), UniProt Q9Y233)",
    "Reported value": 8.72
  },
  {
    "Query smiles": "C[C@@H]1COCCN1c1nc(C#Cc2nc(-c3ccccc3)cn2C)nc2c1ncn2C",
    "Measured target": "Human PDE10A2 (Homo sapiens (Human), UniProt Q9Y233)",
    "Reported value": 10.30
  },
  {
    "Query smiles": "C[C@H]1COCCN1c1nc(C#Cc2nc(-c3cccnc3)c[nH]2)nc2c1ncn2C",
    "Measured target": "Human PDE10A2 (Homo sapiens (Human), UniProt Q9Y233)",
    "Reported value": 8.68
  },
  {
    "Query smiles": "C(#Cc1nc(-c2ccccc2)c[nH]1)c1nc(N2C[C@H]3COC[C@H]3C2)c2cnn(CC3CC3)c2n1",
    "Measured target": "Human PDE10A2 (Homo sapiens (Human), UniProt Q9Y233)",
    "Reported value": 9.99
  },
  {
    "Query smiles": "Cn1cc(-c2ccccc2)nc1C#Cc1nc(N2CC3(COC3)C2)c2cnn(CC3CNC3)c2n1",
    "Measured target": "Human PDE10A2 (Homo sapiens (Human), UniProt Q9Y233)",
    "Reported value": 8.45
  }
]

Then this compound:
Query block: Which measured PDE10A2 Phosphate Sensor Enzyme Assay (pIC50) value corresponds to C[C@H]1COCCN1c1nc(C#Cc2nc(-c3ccccc3)cn2C)nc2c1ncn2C ?
Result block: 9.22

* * *

The entries below are paired with their reported PDE10A2 Phosphate Sensor Enzyme Assay (pIC50).
# Measured target: Human PDE10A2 (Homo sapiens (Human), UniProt Q9Y233)
# Procedure summary: biochemical
# Type: biochemical
# Protocol conditions: human PDE10A2 0.25 nM, cGMP 3 μM
# Experimental: Semi Log compound dilutions starting at a final concentration of 50 μM were dispensed into a black 384 well plate alongside, DMSO and an Inhibited control using the Echo Acoustic dispenser. […] Data was analysed using a 4-parameter fit.

[
  {
    "Query smiles": "C[C@H]1COCCN1c1nc(C#Cc2nc(-c3ccccc3)cn2C)nc2c1CCNC2",
    "Reported value": 8.92
  },
  {
    "Query smiles": "Cn1cc(-c2ccccc2)nc1C#Cc1nc(N2CC3(COC3)C2)c2ncn(C)c2n1",
    "Reported value": 9.26
  },
  {
    "Query smiles": "Cn1cnc2c(N3CC4(COC4)C3)nc(C#Cc3nc(-c4ccccc4)cn3CC3CCOCC3)nc21",
    "Reported value": 9.00
  }
]

Next, consider the following compound.
Query block: For the compound shown here, Cn1cc(-c2ccccc2)nc1C#Cc1nc(N2CC3(COC3)C2)c2cnn(C3CCOCC3)c2n1 , give the reported PDE10A2 Phosphate Sensor Enzyme Assay (pIC50).
Result block: 9.20

* * *

# Measured target: Human PDE10A2 (Homo sapiens (Human))
# Procedure summary: cell-based
# Protocol conditions: Forskolin 10 μM; read-out: cAMP HTRF Assay in HEK 293 rhPDE10A2 cell line (pIC50) (converted)
# Protocol: Semi log compound dilutions starting at a final concentration of 10 μM were dispensed into a white 384 well plate, alongside DMSO and an Inhibited control using the Tecan D300e digital dispenser. HEK 293 cells overexpressing recombinant human PDE10A2 were seeded on top of the compounds at 2500 cells/well in a volume 5 μL/well. The plate was incubated at room temperature for 60 minutes. […] Data was analysed using a 4-parameter fit.
For each record, check the reported IC50: if it is below 0.7 nM write y, else write n.

[
  {
    "Compound": "Cn1cc(-c2ccccc2)nc1C#Cc1nc(N2CCS(=N)(=O)CC2)c2cnn(C)c2n1 [Example 24]",
    "Class": "n"
  },
  {
    "Compound": "CC(C)n1ncc2c(N3C[C@H]4COC[C@H]4C3)nc(C#Cc3nc(-c4ccccc4)cn3C)nc21 [Example 18]",
    "Class": "y"
  },
  {
    "Compound": "Cn1cnc2c(N3C[C@H]4COC[C@H]4C3)nc(C#Cc3nc(-c4cccnc4)c[nH]3)nc21 [Example 31]",
    "Class": "n"
  },
  {
    "Compound": "C[C@@H]1COCCN1c1nc(C#Cc2nc(-c3ccccc3)c[nH]2)nc2c1ncn2C [Example 29]",
    "Class": "n"
  },
  {
    "Compound": "Cn1cc(-c2ccccc2)nc1C#Cc1nc2c(c(N3CCOCC3)n1)CCN(CC1CC1)C2 [Example 15]",
    "Class": "n"
  }
]

Query block: Would you kindly verify if IC50 of Cn1cnc2c(N3CC4(COC4)C3)nc(C#Cc3nc(-c4ccccc4)cn3CCN3CCOCC3)nc21 [Example 5] is strictly less than 0.7 nM?
Result block: y

Query block: Please state whether IC50 is below 0.7 nM for Cn1cnc2c(N3C[C@H]4COC[C@H]4C3)nc(C#Cc3nc(-c4ccccc4)c[nH]3)nc21 [Example 28]
Result block: n

Query block: Given Cn1cc(-c2ccccc2)nc1C#Cc1nc(N2C[C@H]3COC[C@H]3C2)c2cnn(C3COC3)c2n1 [Example 19] , is recorded IC50 strictly lower than 0.7 nM?
Result block: n

Query block: Consider C[C@@H]1COCCN1c1nc(C#Cc2nc(-c3ccccc3)cn2C)nc2c1ncn2C [Example 21] . Does its IC50 lie strictly below 0.7 nM?
Result block: y

Query block: Bench note: check whether Cn1cc(-c2cccnc2)nc1C#Cc1nc(N2CC3(COC3)C2)c2ncn(C)c2n1 [Example 2] shows IC50 below 0.7 nM
Result block: n

Query block: Report whether reported IC50 is lower than 0.7 nM (strictly) for C[C@H]1COCCN1c1nc(C#Cc2nc(-c3cccnc3)c[nH]2)nc2c1ncn2C [Example 33]
Result block: n

* * *

# Measured target: Human PDE10A2 (Homo sapiens (Human))
# Procedure summary: cell-based
# Protocol conditions: Forskolin 10 μM; read-out: cAMP HTRF Assay in HEK 293 rhPDE10A2 cell line (pIC50) (converted)
Property measured: IC50 (nM)
Give your result in nM as a bare value.

[
  {
    "Compound": "CN(C)CCOc1cccc(-c2c[nH]c(C#Cc3nc(N4C[C@H]5COC[C@H]5C4)c4cnn(C)c4n3)n2)c1 [Example 10]",
    "IC50, nM": 0.661
  },
  {
    "Compound": "CCn1ncc2c(N3C[C@H]4COC[C@H]4C3)nc(C#Cc3nc(-c4ccccc4)cn3C)nc21 [Example 17]",
    "IC50, nM": 0.331
  },
  {
    "Compound": "Cn1cnc2c(N3CC4(COC4)C3)nc(C#Cc3nc(-c4ccccc4)cn3CC3CCOCC3)nc21 [Example 4]",
    "IC50, nM": 6.31
  },
  {
    "Compound": "Cn1cc(-c2ccccc2)nc1C#Cc1nc(N2CC3(COC3)C2)c2cnn(C)c2n1 [Example 3]",
    "IC50, nM": 0.275
  },
  {
    "Compound": "C[C@@H]1COCCN1c1nc(C#Cc2nc(-c3cccnc3)c[nH]2)nc2c1ncn2C [Example 32]",
    "IC50, nM": 2.34
  },
  {
    "Compound": "Cn1cc(-c2ccccc2)nc1C#Cc1nc(N2C[C@H]3COC[C@H]3C2)c2cnn(CC3CC3)c2n1 [Example 16]",
    "IC50, nM": 4.17
  },
  {
    "Compound": "Cn1cc(-c2ccccc2)nc1C#Cc1nc(N2CC3(COC3)C2)c2ncn(C)c2n1 [Example 1]",
    "IC50, nM": 1.17
  },
  {
    "Compound": "Cn1ncc2c(N3C[C@H]4COC[C@H]4C3)nc(C#Cc3nc(-c4ccccc4)c[nH]3)nc21 [Example 9]",
    "IC50, nM": 0.603
  },
  {
    "Compound": "Cn1cnc2c(N3CC4(COC4)C3)nc(C#Cc3nc(-c4ccccc4)c[nH]3)nc21 [Example 7]",
    "IC50, nM": 2.95
  },
  {
    "Compound": "C(#Cc1nc(-c2ccccc2)c[nH]1)c1nc(N2C[C@H]3COC[C@H]3C2)c2cnn(C3COC3)c2n1 [Example 27]",
    "IC50, nM": 32.4
  }
]

Query block: Query: IC50; subject: Cn1cc(-c2ccccc2)nc1C#Cc1nc2c(c(N3CCOCC3)n1)CCN(C1COC1)C2 [Example 14]
Result block: 1.78

Query block: Which IC50 value belongs to Cn1cc(-c2ccccc2)nc1C#Cc1nc2c(c(N3CCOCC3)n1)CCNC2 [Example 11] ?
Result block: 1.86

Query block: Find the recorded IC50 belonging to Cn1cc(-c2ccccc2)nc1C#Cc1nc(N2C[C@H]3COC[C@H]3C2)c2cnn(C)c2n1 [Example 23] and report it.
Result block: 0.245
